tested on: 817829-284-R-J1-PDC complex spheroid viability; experiment: Anticancer human tumor 817829-284-R-J1-PDC patient-derived colon adenocarcinoma cell line growth inhibition [POLQ]; conditions: second compound 1 µM; first compound 0.001 µM; stronger effect = lower value
measurement name: viability, T/C

Examples from the recorded data:
compound: CC[C@@]1(O)C(=O)OCc2c1cc1n(c2=O)Cc2cc3c(CN(C)C)c(O)ccc3nc2-1 + Nc1ccc(C#CCN(C(=O)Cc2ncc(C(F)(F)F)cc2C(F)(F)F)c2ccc(F)cc2)nn1
study target: 817829-284-R-J1-PDC complex spheroid viability
experimental result: 115%

compound: CC[C@@]1(O)C(=O)OCc2c1cc1n(c2=O)Cc2cc3c(CN(C)C)c(O)ccc3nc2-1 + Cc1cccc(N(C)C(=O)C2C(O)CCN2c2nc(C)cc(C(F)(F)F)c2C#N)c1
study target: 817829-284-R-J1-PDC complex spheroid viability
experimental result: 84.9%

Now consider a different compound.
Fill blank: measured viability, T/C of the compound CC[C@@]1(O)C(=O)OCc2c1cc1n(c2=O)Cc2cc3c(CN(C)C)c(O)ccc3nc2-1 + COC1C(OC(N)=O)C(O)C(Oc2ccc3c(O)c(NC(=O)c4ccc(O)c(CC=C(C)C)c4)c(=O)oc3c2C)OC1(C)C is ____.
106%

###

test system: 817829-284-R-J1-PDC complex spheroid viability; experiment: Anticancer human tumor 817829-284-R-J1-PDC cell line growth inhibition [POLQ]; settings: curve of first compound; second compound 0.0316 µM;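 also: spheroids exposed to compounds for 7 days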
measurement name: pIC50
Give bare numbers, as −log10 of the molar value.

Can you give me pIC50 for all of these, one by one?
1. COc1ccc([C@@H](O)c2cc(-c3ncnc4cc(N5CCOCC5)ccc34)c(F)cc2Cl)nn1 + COC1C(OC(N)=O)C(O)C(Oc2ccc3c(O)c(NC(=O)c4ccc(O)c(CC=C(C)C)c4)c(=O)oc3c2C)OC1(C)C
2. COc1cc(C2c3cc4c(cc3C(OC3OC5COC(C)OC5C(O)C3O)C3COC(=O)C23)OCO4)cc(OC)c1O (stereo not drawn) + Cc1cccc(N(C)C(=O)C2C(O)CCN2c2nc(C)cc(C(F)(F)F)c2C#N)c1

6.17
7.26

###

test system: 817829-284-R-J1-PDC complex spheroid viability; test: Anticancer human tumor 817829-284-R-J1-PDC cell line growth inhibition [POLQ]; conditions: second compound 1 µM; first compound 0.316 µM; stronger effect = lower value;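 also: spheroids exposed to compounds for 7 days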;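 as to viability, T/C: 100% = DMSO vehicle-treated spheroids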
Record form. Attribute: viability, T/C. Fill in for each entry.
Answers are plain numbers, in %.

For orientation, consider the following solved cases.
compound: O=C(c1cc(Cc2n[nH]c(=O)c3ccccc23)ccc1F)N1CCN(C(=O)C2CC2)CC1 + Cc1cccc(N(C)C(=O)C2C(O)CCN2c2nc(C)cc(C(F)(F)F)c2C#N)c1
experimental result: 74.2
--
compound: O=c1[nH]cc(F)c(=O)[nH]1 + COC1C(OC(N)=O)C(O)C(Oc2ccc3c(O)c(NC(=O)c4ccc(O)c(CC=C(C)C)c4)c(=O)oc3c2C)OC1(C)C
experimental result: 95.1
--
compound: CCc1cc2c(N3CCc4c(cc(Cn5ccnc5)cc4-c4cn(C)nc4C(F)(F)F)C3=O)ccnc2c(OC)n1 + COC1C(OC(N)=O)C(O)C(Oc2ccc3c(O)c(NC(=O)c4ccc(O)c(CC=C(C)C)c4)c(=O)oc3c2C)OC1(C)C
experimental result: 97.3
--
compound: CCc1cc2c(N3CCc4c(cc(Cn5ccnc5)cc4-c4cn(C)nc4C(F)(F)F)C3=O)cc(C)nc2c(OC)n1 + Cc1cccc(N(C)C(=O)C2C(O)CCN2c2nc(C)cc(C(F)(F)F)c2C#N)c1
experimental result: 81.8
--
compound: CC1COCCN1c1cc(C2(O)CC3CCC(C2)O3)c2cnn(-c3ccn[nH]3)c2n1 (stereo not given) + COC1C(OC(N)=O)C(O)C(Oc2ccc3c(O)c(NC(=O)c4ccc(O)c(CC=C(C)C)c4)c(=O)oc3c2C)OC1(C)C
experimental result: 4.54
--
compound: CC(C)n1c(=O)n(C)c2cnc3cc(F)c(-c4ccc(OCCCN5CCCCC5)nc4)cc3c21 + COC1C(OC(N)=O)C(O)C(Oc2ccc3c(O)c(NC(=O)c4ccc(O)c(CC=C(C)C)c4)c(=O)oc3c2C)OC1(C)C
experimental result: 84

Your task in this section: give viability, T/C for each listed record.
1. CC(C)n1c(=O)n(C)c2cnc3cc(F)c(-c4ccc(OCCCN5CCCCC5)nc4)cc3c21 + Cc1cccc(N(C)C(=O)C2C(O)CCN2c2nc(C)cc(C(F)(F)F)c2C#N)c1
2. CC1COCCN1c1cc(-c2ccnn2C)c2ccnc(-c3ccn[nH]3)c2n1 (stereo not given) + COC1C(OC(N)=O)C(O)C(Oc2ccc3c(O)c(NC(=O)c4ccc(O)c(CC=C(C)C)c4)c(=O)oc3c2C)OC1(C)C
3. CCCS(=O)(=O)Nc1ccc(F)c(C(=O)c2c[nH]c3ncc(-c4ccc(Cl)cc4)cc23)c1F + Cc1cccc(N(C)C(=O)C2C(O)CCN2c2nc(C)cc(C(F)(F)F)c2C#N)c1
4. CC(C)n1c(=O)n(C)c2cnc3cc(F)c(-c4ccc(OCCCN5CCCCC5)nc4)cc3c21 + Nc1ccc(C#CCN(C(=O)Cc2ncc(C(F)(F)F)cc2C(F)(F)F)c2ccc(F)cc2)nn1

1. 99.1
2. 5.6
3. 90.8
4. 103

###

Would you kindly list IC50 for each of these molecules?
Tested on: 817829-284-R-J1-PDC complex spheroid viability
Experiment: Anticancer human tumor 817829-284-R-J1-PDC cell line growth inhibition [POLQ];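 also: spheroids exposed to compounds for 7 days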
Details: curve of first compound; second compound 0.316 µM
Procedure: Multicellular complex tumor spheroid response to Polymerase (POL) inhibitors (novobiocin, ART-558, RP6685) in combination with a variety of drugs and investigational agents in selected tumor cell lines The POL inhibitors (novobiocin, ART-558, and RP6685) were evaluated both individually and in combination with standard of care and investigational anticancer small molecules within a complex spheroid model of solid tumors. . […]
One number for each entry, in nM.

# return IC50 for each item in the list
1. CC1COCCN1c1cc(C2(S(C)(=N)=O)CC2)nc(-c2ccnc3[nH]ccc23)n1 (stereo not given) + COC1C(OC(N)=O)C(O)C(Oc2ccc3c(O)c(NC(=O)c4ccc(O)c(CC=C(C)C)c4)c(=O)oc3c2C)OC1(C)C
2. C=CCn1c(=O)c2cnc(Nc3ccc(N4CCN(C)CC4)cc3)nc2n1-c1cccc(C(C)(C)O)n1 + COC1C(OC(N)=O)C(O)C(Oc2ccc3c(O)c(NC(=O)c4ccc(O)c(CC=C(C)C)c4)c(=O)oc3c2C)OC1(C)C
3. CCCS(=O)(=O)Nc1ccc(F)c(C(=O)c2c[nH]c3ncc(-c4ccc(Cl)cc4)cc23)c1F + Nc1ccc(C#CCN(C(=O)Cc2ncc(C(F)(F)F)cc2C(F)(F)F)c2ccc(F)cc2)nn1

[363, 176, 3460]

###

tested on: 817829-284-R-J1-PDC complex spheroid viability; experiment: Anticancer human tumor 817829-284-R-J1-PDC cell line growth inhibition [POLQ]; conditions: curve of first compound; second compound 1 µM;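 also: spheroids exposed to compounds for 7 days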
Provide the reported IC50 of each item.
One number for each entry, in µM.

Sample records with IC50:
compound: CCCS(=O)(=O)Nc1ccc(F)c(C(=O)c2c[nH]c3ncc(-c4ccc(Cl)cc4)cc23)c1F + Cc1cccc(N(C)C(=O)C2C(O)CCN2c2nc(C)cc(C(F)(F)F)c2C#N)c1
measurement name: IC50
result units: µM
experimental result: 3.71
//
compound: COc1cccc(OCCCN)c1-c1cc(Nc2cnc(C#N)cn2)n[nH]1 + Nc1ccc(C#CCN(C(=O)Cc2ncc(C(F)(F)F)cc2C(F)(F)F)c2ccc(F)cc2)nn1
measurement name: IC50
result units: µM
experimental result: 0.00569

Next, consider the following compound.
Request: IC50, test system 817829-284-R-J1-PDC complex spheroid viability, entry CC(C)n1c(=O)n(C)c2cnc3cc(F)c(-c4ccc(OCCCN5CCCCC5)nc4)cc3c21 + COC1C(OC(N)=O)C(O)C(Oc2ccc3c(O)c(NC(=O)c4ccc(O)c(CC=C(C)C)c4)c(=O)oc3c2C)OC1(C)C
4.94

###

tested on: 817829-284-R-J1-PDC complex spheroid viability; assay: Anticancer human tumor 817829-284-R-J1-PDC cell line growth inhibition [POLQ]; settings: second compound 0.0316 µM; first compound 3.16 µM; active = viability on the fitted dose curve at most 10% of control; inactive = the rest;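 also: spheroids exposed to compounds for 7 days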
In this exercise, the only acceptable responses are YES (active), NO (inactive)

The examples below pair each entry with its known result.
compound: CC1COCCN1c1cc(C2(O)CC3CCC(C2)O3)c2cnn(-c3ccn[nH]3)c2n1 (configuration not stated) + Cc1cccc(N(C)C(=O)C2C(O)CCN2c2nc(C)cc(C(F)(F)F)c2C#N)c1
category label: YES

compound: CC(C)n1c(=O)n(C)c2cnc3cc(F)c(-c4ccc(OCCCN5CCCCC5)nc4)cc3c21 + COC1C(OC(N)=O)C(O)C(Oc2ccc3c(O)c(NC(=O)c4ccc(O)c(CC=C(C)C)c4)c(=O)oc3c2C)OC1(C)C
category label: NO

compound: CCCS(=O)(=O)Nc1ccc(F)c(C(=O)c2c[nH]c3ncc(-c4ccc(Cl)cc4)cc23)c1F + COC1C(OC(N)=O)C(O)C(Oc2ccc3c(O)c(NC(=O)c4ccc(O)c(CC=C(C)C)c4)c(=O)oc3c2C)OC1(C)C
category label: NO

compound: CC1COCCN1c1cc(C2(O)CC3CCC(C2)O3)c2cnn(-c3ccn[nH]3)c2n1 (configuration not stated) + COC1C(OC(N)=O)C(O)C(Oc2ccc3c(O)c(NC(=O)c4ccc(O)c(CC=C(C)C)c4)c(=O)oc3c2C)OC1(C)C
category label: YES

compound: COc1cccc2c1C(=O)c1c(O)c3c(c(O)c1C2=O)CC(O)(C(=O)CO)CC3OC1CC(N)C(O)C(C)O1 (configuration not stated) + Nc1ccc(C#CCN(C(=O)Cc2ncc(C(F)(F)F)cc2C(F)(F)F)c2ccc(F)cc2)nn1
category label: YES

compound: CNCc1ccc(-c2[nH]c3cc(F)cc4c3c2CCNC4=O)cc1 + COC1C(OC(N)=O)C(O)C(Oc2ccc3c(O)c(NC(=O)c4ccc(O)c(CC=C(C)C)c4)c(=O)oc3c2C)OC1(C)C
category label: NO

Can you look up the reported call for Nc1ccn(C2OC(CO)C(O)C2(F)F)c(=O)n1 (configuration not stated) + COC1C(OC(N)=O)C(O)C(Oc2ccc3c(O)c(NC(=O)c4ccc(O)c(CC=C(C)C)c4)c(=O)oc3c2C)OC1(C)C for me?
YES

Now try COc1cc2cc(C(=O)CCC(=O)O)sc2cc1OC + Cc1cccc(N(C)C(=O)C2C(O)CCN2c2nc(C)cc(C(F)(F)F)c2C#N)c1 .
NO

Repeat for the following compound: CC(C)n1c(=O)n(C)c2cnc3cc(F)c(-c4ccc(OCCCN5CCCCC5)nc4)cc3c21 + Nc1ccc(C#CCN(C(=O)Cc2ncc(C(F)(F)F)cc2C(F)(F)F)c2ccc(F)cc2)nn1
NO

Subsequent entry: COc1ccc([C@@H](O)c2cc(-c3ncnc4cc(N5CCOCC5)ccc34)c(F)cc2Cl)nn1 + Nc1ccc(C#CCN(C(=O)Cc2ncc(C(F)(F)F)cc2C(F)(F)F)c2ccc(F)cc2)nn1
NO

How about this compound: COc1ccc([C@@H](O)c2cc(-c3ncnc4cc(N5CCOCC5)ccc34)c(F)cc2Cl)nn1 + COC1C(OC(N)=O)C(O)C(Oc2ccc3c(O)c(NC(=O)c4ccc(O)c(CC=C(C)C)c4)c(=O)oc3c2C)OC1(C)C
NO

Entry CCc1cc2c(N3CCc4c(cc(Cn5ccnc5)cc4-c4cn(C)nc4C(F)(F)F)C3=O)ccnc2c(OC)n1 + Cc1cccc(N(C)C(=O)C2C(O)CCN2c2nc(C)cc(C(F)(F)F)c2C#N)c1 please
NO
